Measured Luciferase units of individual entries
Tested on: HCV pseudotype (HIV core proteins, HCV E1 and E2 of strain H77)
Condition: HCV J4 1b E2 peptides at ~25 μM; Table 8; controls as in Table 7
Peptide text beside a SMILES is read from it.

{"Molecule": "CC(C)[C@H](NC(=O)CNC(=O)[C@H](CS)NC(=O)[C@@H]1CCCN1C(=O)[C@H](CCCNC(=N)N)NC(=O)[C@@H]1CCCN1)C(=O)N[C@H](C(=O)N1CCC[C@H]1C(=O)N[C@@H](C)C(=O)N[C@@H](CO)C(=O)N[C@@H](CCC(N)=O)C(=O)N[C@H](C(=O)N[C@@H](CS)C(=O)NCC(=O)N1CCC[C@H]1C(=O)N[C@H](C(=O)N[C@@H](Cc1ccc(O)cc1)C(=O)N[C@@H](CS)C(=O)O)C(C)C)C(C)C)C(C)C [compound 92, PRPCGVVPASQVCGPVYC] (H-PRPCGVVPASQVCGPVYC-OH; N-terminus and C-terminus assumed)", "Luciferase units": "372,400 luciferase units (lumens)"}
{"Molecule": "CC(C)C[C@H](NC(=O)[C@H](CC(C)C)NC(=O)[C@H](CC(C)C)NC(=O)[C@@H]1CCCN1C(=O)[C@H](CO)NC(=O)[C@H](CC(C)C)NC(=O)[C@H](CCC(=O)O)NC(=O)[C@H](CO)NC(=O)[C@H](CCCNC(=N)N)NC(=O)[C@H](CC(=O)O)NC(=O)[C@H](CCCNC(=N)N)NC(=O)[C@H](CC(=O)O)NC(=O)[C@H](CCC(=O)O)NC(=O)[C@H](CC(C)C)NC(=O)[C@H](CC(N)=O)NC(=O)[C@@H](N)CS)C(=O)N[C@@H](CO)C(=O)N[C@H](C(=O)O)[C@@H](C)O [compound 113, CNLEDRDRSELSPLLLST]", "Luciferase units": "570,553 luciferase units (lumens)"}

Reference source for all entries: patent US7381705B2
